# systemTested: Glycogen synthase kinase-3 beta (Homo sapiens) (UniProt P49841);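 note: values are mean percent inhibition of GSK3B activity, from the GSK Published Kinase Inhibitor Set (PKIS) screening dataset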
# Sequence (P49841 whole entry, looked up): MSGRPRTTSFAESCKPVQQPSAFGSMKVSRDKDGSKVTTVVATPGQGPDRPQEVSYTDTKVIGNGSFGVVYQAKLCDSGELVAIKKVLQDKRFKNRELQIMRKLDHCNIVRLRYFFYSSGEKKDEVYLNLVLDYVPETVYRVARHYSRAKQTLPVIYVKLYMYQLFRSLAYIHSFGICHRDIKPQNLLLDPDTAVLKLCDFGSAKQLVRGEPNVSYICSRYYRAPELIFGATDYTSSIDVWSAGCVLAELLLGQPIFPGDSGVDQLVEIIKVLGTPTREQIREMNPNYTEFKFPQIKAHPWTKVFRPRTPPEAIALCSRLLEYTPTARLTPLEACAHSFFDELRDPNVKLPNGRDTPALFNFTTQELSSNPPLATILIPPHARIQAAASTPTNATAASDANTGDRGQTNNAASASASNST
# runParameters: at 0.1 µM
Would you mind telling me the reported inhibition of each entry?
The response must be a number in % with no trailing unit.

I would be grateful if you could share the reported inhibition for "CN1CCC(n2cnc(-c3ccc(F)cc3)c2-c2ccnc(NCCO)n2)CC1" . 3.17

Any idea what its inhibition is? The molecule is "Cn1c(-c2nonc2N)nc2cnccc21" 5.71

Name the recorded inhibition for "COc1cc(Nc2ncc(-c3ccccc3)o2)cc(OC)c1" . 2.47

Data request, read-out inhibition, for "CN(c1ccc(NC(=O)NCCN2CCOCC2)cc1)c1ccnc(Nc2ccc(CS(C)(=O)=O)cc2)n1" 4.49

Query (molecule): "COc1ccccc1-c1cc(/C=C2\C(=O)Nc3ncc(Br)cc32)cc(Br)c1O" ; field requested: inhibition 5.17

Quick one: inhibition of "CS(=O)(=O)Nc1ccc(-c2ccc3c(NC(=O)C4CC4)n[nH]c3c2)cc1" ? 1.51

Any idea what its inhibition is? The molecule is "COc1cc(N2CCN(C(C)C)CC2)ccc1Nc1nc(Nc2cccc(F)c2C(=O)O)c2cc[nH]c2n1" 3.95

Fill in: inhibition of "CCS(=O)(=O)c1ccc(OC)c(Nc2ncc(-c3cccc(C(C)=O)c3)o2)c1" is ___ 4.38

Can you share its inhibition? I mean this molecule: "N#Cc1cccc(Nc2ncc(-c3ccccc3)o2)c1" 2.85

Recorded inhibition for "COC(=O)Nc1nc2ccc(Oc3ccc(NC(=O)Nc4cc(C(F)(F)F)ccc4F)cc3)cc2s1" , please? -0.46
